Source listed as the emibetuzumab library of Makowski et al. (2022).

B1: VH:VL chains; a variant is named by its letters at X, in order (parent)
chain 1: QVQLVQSGAEVKKPGASVKVSCKASGYTFTDYXMHWVRQAPGQGLEWMGXVNPNXXXTTYNQKFEGRVTMTTDTSTSTAYMELRSLRSDDTAVYYCARXNXLDXWGQGTTVTVSS
chain 2: DIQMTQSPSSLSASVGDRVTITCSVSSSVSSIYLHWYQQKPGKAPKLLIYSTSNLASGVPSRFSGSGSGTDFTLTISSLQPEDFATYYCQVYSGYPLTFGGGTKVEIK

Variants of: B1
Assay: yeast display scFab, FACS + sequencing

# change, non-specific binding call
records = [
    ("SREAASLA", "no binding"),
    ("VEAGDSLD", "no binding"),
    ("AATGSAWA", "no binding"),
    ("YKRGSASV", "binds"),
    ("YGGGGASV", "binds"),
    ("VAEKGAGD", "no binding"),
    ("YKEGGSGD", "no binding"),
    ("AARADAGA", "no binding"),
    ("VRRGSSAV", "binds"),
    ("VRAGDSGY", "no binding"),
    ("ARTRTAWY", "binds"),
    ("VRAGDALV", "no binding"),
    ("YATGDDGV", "no binding"),
    ("FRGRGALS", "binds"),
    ("YGGKNSVD", "no binding"),
    ("VKARGAGS", "binds"),
    ("YKGRGALS", "binds"),
    ("YRKGGAAY", "binds"),
    ("VKGRAFSV", "no binding"),
    ("YTGGDDVD", "no binding"),
    ("YEGTGSWA", "no binding"),
    ("VAAKNDGA", "no binding"),
    ("YTGGADAV", "no binding"),
    ("DKEGGSLV", "no binding"),
    ("VEAGDSWV", "no binding"),
    ("YRAGGAAF", "binds"),
    ("YRAKGSVD", "binds"),
]
